Target: T1, human dimeric EGFR (EGFR.mFc) (human)
T1 construct: Soluble dimeric EGFR construct
Experiment: SPR 37C, mAb captured by anti-human Fc, EGFR.mFc analyte
Protocol: Different concentrations of human monomeric (EGFR.mmh; SEQ ID NO:386) and dimeric (EGFR.mFc; SEQ ID NO:387) proteins were injected over the anti-EGFR monoclonal antibody captured surface at a flow rate of 50 μI/min. Antibody-antigen association was monitored for 4-5 minutes while dissociation of antigen from the captured monoclonal antibody surface was monitored for 10 min. […]
Binary call on kon: True from 900000 M⁻¹ s⁻¹ upward, False beneath that.

Consider the worked cases shown below.
[
  {
    "Binder": "H1H169P (antibody, human IgG1, V domains shown, Human IgG1 Fc (H1H)) VH: EVQLVESGGGLVQPGGSLRLSCAASRFTFSTYWMSWVRQAPGKGLEWVAKIKQDGSEKYYLDSVKDRFTISRDNAKNSLYLQMNSLRAEDTAVYYCASSITWYDYYYGMDVWGHGTTVTVSS VL: EIVLTQSPDFQSVTPKEKVTITCRASQSIGSNLHWYQQKPDQSPNLLIKFASQSFSGVPSRFSGSGSGTDFTLTINSLEAEDAATYYCHQTNFLPHTFGGGTKVEIK",
    "Class Label": "True"
  },
  {
    "Binder": "H1H147P (antibody, human IgG1, V domains shown, Human IgG1 Fc (H1H)) VH: EVQLVESGPGLVQPSQTLSLTCTVSGGSINSGDFYWSWIRQHPGKGLEWIGHIYYSGITYYSPSLKSRLTISVDTSKNQFSLKLSSVTAADTAVYYCARKRVTGEVDYWGQGTLVTVSS VL: DIQMTQSPSSLSASVGDRITITCQANQDINNYLNWYQQKPGKAPKLLISDASNLETGVPSRFSGSGSGTDFTFTISSLQPEDIATYYCQQYDNLPPTFGQGTRLEIKR",
    "Class Label": "False"
  },
  {
    "Binder": "H1H103N (antibody, human IgG1, V domains shown, Tested in human IgG1 Fc format (H1H); also called H1M103N) VH: EVQLVESGGGLVQPGGSLRLSCAASGFTFSSYDMHWVRQTTGKGLEWVSGIGTAGDTYYPGSVKGRFTISREDAKNSLYLQMNSLRAGDTAVYYCARVGYDWNFVAFDYWGQGTLVTVSS VL: DIVMTQSPLSLPVTPGEPASISCRSSQSLLHSNGYNYLDWYLQKPGQSPQLLIHLVSIRASGVPDRFSGSGSGTDFTLKISRVEAEDVGIYYCMQALQTPWTFGQGTKVEIK",
    "Class Label": "False"
  }
]

Continue with the next binder.
## Task Given H1H0085N (antibody, V domains shown, Tested in human IgG1 Fc format (H1H prefix); first obtained as H1M (mouse IgG1 Fc) from a hybridoma; also called H1M085N; H1H085N) VH: EVQLVESGGGLVQPGRSLRLSCAASGFTFDDYAMHWVRQAPGKGLEWVSGINWNSDKIAYADSVKGRFTISRDNAENSLFLQMNSLRPEDTALYYCVKRGDFWTEYYDYWGQGTLVTVSS VL: DIVMTQSPLSLPVTPGEPASISCRSSQSLLHSNGYNYLDWYLQKPGQSPHLLIYLVSTRASGVPDRFSGSGSGTDFTLKISRVEAEDVGVYYCIQALQTPWTFGQGTKVEIK , state whether its kon is at least 900000 M⁻¹ s⁻¹.
## Result False
